- measurementDescription: NCI Yeast Anticancer Drug Screen. Data for the bub3 strain (AID 167)
- conditionNotes: S. cerevisiae bub3 mutant strain, at 50.0 µM, active compounds read high
The panel holds about 79,000 compounds, 15% with a hit somewhere; the sample as a whole holds those more often.
Outcome: t for growth inhibition of at least 20%; f for anything lower.

Query block: Is growth inhibition for O=S(=O)([O-])[O-].[Fe+2].c1ccc(/C(=N\Nc2ccccn2)c2ccccn2)cc1 at or above 20%?
Result block: f

Query block: Is growth inhibition for C=C1C(C)C2C(Cc3ccccc3)NC(=O)C23C(OC(C)=O)C=CC(C)(O)C(=O)C(C)C/C=C/C3C1O (stereo not given) at or above 20%?
Result block: t

Query block: Is growth inhibition for CCCCCOC(=O)CCl at or above 20%?
Result block: f

Query block: Is growth inhibition for CC(C)CC(NC(=O)C(N)C(C)C)C(=O)NC(CCCCN)C(=O)Nc1ccc(N(CCCl)CCCl)cc1 (stereo not given) at or above 20%?
Result block: f

Query block: Is growth inhibition for c1ccc(C[As+](c2ccccc2)(c2ccccc2)c2ccccc2)cc1 at or above 20%?
Result block: t

Query block: Is growth inhibition for CCN(CC)CC(=O)c1ccc2c(ccc3ccccc32)c1 at or above 20%?
Result block: t

Query block: Is growth inhibition for CC[C@](C)(O)C(=O)O[C@H]1C(=O)O[C@@H]2C[C@H]3C(C)=CC(=O)[C@@H](O)[C@]3(C)[C@H]3[C@@]4(O)OC[C@]32[C@@H]1[C@@H](C)[C@H]4O at or above 20%?
Result block: t

Query block: Is growth inhibition for CCCCCCCCCCCCNCCc1ccccc1 at or above 20%?
Result block: t

Query block: Is growth inhibition for Cn1c(=O)c2[nH]cnc2n(C)c1=O.[CH2-]C(Cc1cccc2cc(C(=O)O)c(=O)oc12)OC.[Hg+2].[OH-] (stereo not given) at or above 20%?
Result block: t

###

- measurementDescription: NCI Yeast Anticancer Drug Screen. Data for the mec2-1 strain (AID 157)
- conditionNotes: S. cerevisiae mec2-1 strain, at 50.0 µM (retest, dose inferred, filed as 5.0), active compounds read high
This is part of a sample that, as a whole, favours compounds with a hit. Of some 79,000 tested, about 15% had one in any assay.
Exercise: state measured growth inhibition for each of the compounds provided.
Give your result in % as a bare value.

Query block: Which growth inhibition value belongs to CCCCCCCCCCCCC(=O)[O][Hg][c]1ccccc1 ?
Result block: 100

Query block: Which growth inhibition value belongs to CC(=O)[CH-]C(=O)c1ccccc1.CC(=O)[CH-]C(=O)c1ccccc1.C[C@]12CCC(=O)C=C1CC[C@@H]1C2CC[C@@]2(C)C1CC[C@]2(C)[O-].C[C@]12CCC(=O)C=C1CC[C@@H]1C2CC[C@@]2(C)C1CC[C@]2(C)[O-].Cl.[Ti+4] (some centres undefined) ?
Result block: 87

Query block: Which growth inhibition value belongs to c1ccc2c(c1)[As]=c1ccccc1=[As]2 (centres undefined) ?
Result block: 99

Query block: Which growth inhibition value belongs to CCOc1cc(/C=C/[N+](=O)[O-])ccc1O ?
Result block: 73

Query block: Which growth inhibition value belongs to CN(C)c1ccc(C2N(Cc3ccc(N(CCCl)CCCl)cc3Cl)CCCN2Cc2ccc(N(CCCl)CCCl)cc2Cl)cc1 ?
Result block: 98

Query block: Which growth inhibition value belongs to CC(=O)Nc1cccc([As+](C)(c2cccc(NC(C)=O)c2)c2cccc(NC(C)=O)c2)c1 ?
Result block: 14

Query block: Which growth inhibition value belongs to COc1cc2c(c(OC)c1OC)-c1ccc(O)c(=O)cc1C(NC(C)=O)CC2 (centres undefined) ?
Result block: -8

Query block: Which growth inhibition value belongs to C[As](C)SCCC(CCCCC(=O)O)S[As](C)C (centres undefined) ?
Result block: 32

Query block: Which growth inhibition value belongs to O=C(O)CN(CCN(CC(=O)O)CC(=O)O)CC(=O)O ?
Result block: 70
